target: Tyrosine-protein kinase ABL1 (Homo sapiens) (UniProt P00519); test: Enzymatic radiometric [Km ATP] KinaseProfiler LeadHunter assay, kinase: Abl, catalogue number: 14-529KP The assay has been performed by Eurofins Discovery.; conditions: ATP concentration 45.0 uM, Test compound concentration 10.0 uM
Sequence (P00519 whole entry): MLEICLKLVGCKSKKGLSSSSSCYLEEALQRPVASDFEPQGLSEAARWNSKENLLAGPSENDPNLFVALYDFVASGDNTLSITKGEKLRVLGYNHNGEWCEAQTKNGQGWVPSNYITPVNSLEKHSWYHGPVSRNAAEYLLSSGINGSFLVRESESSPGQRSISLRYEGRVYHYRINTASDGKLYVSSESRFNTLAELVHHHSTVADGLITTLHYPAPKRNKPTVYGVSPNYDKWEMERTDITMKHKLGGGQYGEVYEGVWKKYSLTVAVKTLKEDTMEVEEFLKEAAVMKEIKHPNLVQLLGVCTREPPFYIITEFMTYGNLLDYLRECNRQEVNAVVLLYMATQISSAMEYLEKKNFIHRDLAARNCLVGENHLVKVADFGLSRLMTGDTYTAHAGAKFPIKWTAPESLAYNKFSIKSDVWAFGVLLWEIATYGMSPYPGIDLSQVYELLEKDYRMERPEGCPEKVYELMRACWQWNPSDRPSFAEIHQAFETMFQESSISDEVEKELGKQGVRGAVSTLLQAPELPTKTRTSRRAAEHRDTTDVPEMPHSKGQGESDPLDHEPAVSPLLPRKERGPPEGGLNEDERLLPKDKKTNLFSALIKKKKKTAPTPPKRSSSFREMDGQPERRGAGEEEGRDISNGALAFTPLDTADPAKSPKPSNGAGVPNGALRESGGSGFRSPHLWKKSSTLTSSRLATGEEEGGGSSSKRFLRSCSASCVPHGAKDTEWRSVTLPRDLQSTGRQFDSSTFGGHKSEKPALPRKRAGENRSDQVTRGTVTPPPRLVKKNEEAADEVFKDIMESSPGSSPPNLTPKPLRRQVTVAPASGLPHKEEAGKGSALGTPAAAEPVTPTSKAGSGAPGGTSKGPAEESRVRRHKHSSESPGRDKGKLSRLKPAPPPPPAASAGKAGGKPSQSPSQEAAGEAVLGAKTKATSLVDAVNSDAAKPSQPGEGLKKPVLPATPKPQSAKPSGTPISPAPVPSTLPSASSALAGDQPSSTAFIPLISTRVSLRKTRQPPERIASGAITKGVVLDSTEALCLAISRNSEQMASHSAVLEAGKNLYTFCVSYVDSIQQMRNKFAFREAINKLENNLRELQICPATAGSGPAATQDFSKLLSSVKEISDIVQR
Field: Activity. Provide a value for each of the molecules that follow.
Answers are plain numbers, in %.

[[record]]
smiles_entry = "CC(C)[C@H](Nc1ncnc2[nH]c(-c3cnn(C)c3C#N)cc12)c1ccc2c(n1)OCCO2"
measured_target = "Tyrosine-protein kinase ABL1 (Homo sapiens) (UniProt P00519)"
recorded_measurement = 57

[[record]]
smiles_entry = "CC(C)[C@@H](Nc1ncnc2[nH]c(C(=O)N[C@@H]3CCN(C)C3)cc12)c1ccc2c(c1)S(=O)(=O)CCC2"
measured_target = "Tyrosine-protein kinase ABL1 (Homo sapiens) (UniProt P00519)"
recorded_measurement = 100

[[record]]
smiles_entry = "CNC(=O)Cn1cc(-c2cc3c(N[C@@H](c4ccc5c(c4)S(=O)(=O)CCC5)C(C)C)ncnc3[nH]2)cn1"
measured_target = "Tyrosine-protein kinase ABL1 (Homo sapiens) (UniProt P00519)"
recorded_measurement = 72

[[record]]
smiles_entry = "CC(C)[C@@H](Nc1ncnc2[nH]ccc12)c1ccc2c(c1)S(=O)(=O)CCC2"
measured_target = "Tyrosine-protein kinase ABL1 (Homo sapiens) (UniProt P00519)"
recorded_measurement = 93


Hi, could you look up Activity for each item in my list?
1. C[C@H](C(=O)O)[C@@H](NC(=O)c1ncnc2[nH]ccc12)c1ccc(Br)cc1
2. COc1ccc([C@@H](Cc2nnn[nH]2)NC(=O)c2ncnc3[nH]ccc23)cc1
3. CC(C)[C@H](Nc1ncnc2[nH]ccc12)c1ccc2c(c1)S(=O)(=O)CCC2
4. COc1ccc([C@H](Cc2nnn[nH]2)NC(=O)c2ncnc3[nH]ccc23)cc1
5. Cn1ncc(-c2cc3c(N[C@@H](c4ccc5c(n4)OCCO5)C(C)(C)C)ncnc3[nH]2)c1C#N
6. CNCc1cc(-c2cc3c(N[C@@H](c4ccc5c(c4)S(=O)(=O)CCC5)C(C)C)ncnc3[nH]2)co1

[97, 98, 105, 102, 81, 51]

Fill in Activity for record Cc1nn(C)cc1-c1cc2c(N[C@H](c3ccc4c(c3)S(=O)(=O)CCC4)C(C)C)ncnc2[nH]1
76

---

biological target: Glycogen synthase kinase-3 beta (Homo sapiens); assay: Enzymatic radiometric [Km ATP] KinaseProfiler LeadHunter assay, kinase: GSK3-beta, catalogue number: 14-306KP The assay has been performed by Eurofins Discovery.; details: ATP concentration 15.0 uM, Test compound concentration 10.0 uM
measured-property: Activity

Consider the worked cases shown below.
[[record]]
smiles_entry = "COc1ccc([C@H](Cc2nnn[nH]2)NC(=O)c2ncnc3[nH]ccc23)cc1"
measured_property = "Activity"
recorded_measurement = "90%"

[[record]]
smiles_entry = "COc1ccc([C@@H](Cc2nnn[nH]2)NC(=O)c2ncnc3[nH]ccc23)cc1"
measured_property = "Activity"
recorded_measurement = "105%"

[[record]]
smiles_entry = "CC(C)[C@H](Nc1ncnc2[nH]c(-c3cnn(C)c3C#N)cc12)c1ccc2c(n1)OCCO2"
measured_property = "Activity"
recorded_measurement = "98%"

[[record]]
smiles_entry = "CNCc1cc(-c2cc3c(N[C@@H](c4ccc5c(c4)S(=O)(=O)CCC5)C(C)C)ncnc3[nH]2)co1"
measured_property = "Activity"
recorded_measurement = "92%"

[[record]]
smiles_entry = "CC(C)[C@H](Nc1ncnc2[nH]ccc12)c1ccc2c(c1)S(=O)(=O)CCC2"
measured_property = "Activity"
recorded_measurement = "94%"

[[record]]
smiles_entry = "CNC(=O)Cn1cc(-c2cc3c(N[C@@H](c4ccc5c(c4)S(=O)(=O)CCC5)C(C)C)ncnc3[nH]2)cn1"
measured_property = "Activity"
recorded_measurement = "98%"


Could you tell me Activity for each of these compounds? They are listed below.
1. CC(C)[C@@H](Nc1ncnc2[nH]c(C(=O)N[C@@H]3CCN(C)C3)cc12)c1ccc2c(c1)S(=O)(=O)CCC2
2. Cn1ncc(-c2cc3c(N[C@@H](c4ccc5c(n4)OCCO5)C(C)(C)C)ncnc3[nH]2)c1C#N

1. 93%
2. 98%

---

target: Tyrosine-protein kinase Fyn (Homo sapiens) (UniProt P06241); assay: Enzymatic radiometric [Km ATP] KinaseProfiler LeadHunter assay, kinase: Fyn, catalogue number: 14-441KP The assay has been performed by Eurofins Discovery.; details: ATP concentration 70.0 uM, Test compound concentration 10.0 uM
Sequence (P06241 2-537 limits assumed): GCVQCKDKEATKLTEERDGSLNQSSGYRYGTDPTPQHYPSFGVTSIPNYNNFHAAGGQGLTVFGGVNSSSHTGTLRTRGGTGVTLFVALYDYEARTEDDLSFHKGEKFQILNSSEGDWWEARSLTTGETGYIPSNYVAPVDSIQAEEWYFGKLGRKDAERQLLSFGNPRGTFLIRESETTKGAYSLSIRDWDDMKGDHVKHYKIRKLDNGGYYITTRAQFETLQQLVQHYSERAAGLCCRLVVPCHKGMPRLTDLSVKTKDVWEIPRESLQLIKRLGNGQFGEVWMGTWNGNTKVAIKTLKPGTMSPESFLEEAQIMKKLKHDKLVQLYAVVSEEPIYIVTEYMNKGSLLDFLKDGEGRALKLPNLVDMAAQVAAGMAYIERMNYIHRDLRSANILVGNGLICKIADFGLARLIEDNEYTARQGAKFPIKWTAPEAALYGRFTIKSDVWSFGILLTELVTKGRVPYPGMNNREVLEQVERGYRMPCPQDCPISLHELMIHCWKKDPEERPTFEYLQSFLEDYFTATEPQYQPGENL
measured-property: Activity (%)
One number for each entry, in %.

[[record]]
smiles_entry = "CC(C)[C@H](Nc1ncnc2[nH]ccc12)c1ccc2c(c1)S(=O)(=O)CCC2"
measured_property = "Activity"
recorded_measurement = 96

[[record]]
smiles_entry = "CC(C)[C@H](Nc1ncnc2[nH]c(-c3cnn(C)c3C#N)cc12)c1ccc2c(n1)OCCO2"
measured_property = "Activity"
recorded_measurement = 80

[[record]]
smiles_entry = "CNC(=O)Cn1cc(-c2cc3c(N[C@@H](c4ccc5c(c4)S(=O)(=O)CCC5)C(C)C)ncnc3[nH]2)cn1"
measured_property = "Activity"
recorded_measurement = 65

[[record]]
smiles_entry = "COc1ccc([C@H](Cc2nnn[nH]2)NC(=O)c2ncnc3[nH]ccc23)cc1"
measured_property = "Activity"
recorded_measurement = 102

[[record]]
smiles_entry = "Cc1nn(C)cc1-c1cc2c(N[C@H](c3ccc4c(c3)S(=O)(=O)CCC4)C(C)C)ncnc2[nH]1"
measured_property = "Activity"
recorded_measurement = 32

[[record]]
smiles_entry = "COc1ccc([C@@H](Cc2nnn[nH]2)NC(=O)c2ncnc3[nH]ccc23)cc1"
measured_property = "Activity"
recorded_measurement = 105


Consider the record given below.
Quick one: give measured Activity for CC(C)[C@@H](Nc1ncnc2[nH]ccc12)c1ccc2c(c1)S(=O)(=O)CCC2
127

---

molecular target: Ephrin type-A receptor 5 (Homo sapiens) (UniProt P54756); experiment: Enzymatic radiometric [Km ATP] KinaseProfiler LeadHunter assay, kinase: EphA5, catalogue number: 14-639KP The assay has been performed by Eurofins Discovery.; details: ATP concentration 10.0 uM, Test compound concentration 10.0 uM
Sequence (P54756 whole entry): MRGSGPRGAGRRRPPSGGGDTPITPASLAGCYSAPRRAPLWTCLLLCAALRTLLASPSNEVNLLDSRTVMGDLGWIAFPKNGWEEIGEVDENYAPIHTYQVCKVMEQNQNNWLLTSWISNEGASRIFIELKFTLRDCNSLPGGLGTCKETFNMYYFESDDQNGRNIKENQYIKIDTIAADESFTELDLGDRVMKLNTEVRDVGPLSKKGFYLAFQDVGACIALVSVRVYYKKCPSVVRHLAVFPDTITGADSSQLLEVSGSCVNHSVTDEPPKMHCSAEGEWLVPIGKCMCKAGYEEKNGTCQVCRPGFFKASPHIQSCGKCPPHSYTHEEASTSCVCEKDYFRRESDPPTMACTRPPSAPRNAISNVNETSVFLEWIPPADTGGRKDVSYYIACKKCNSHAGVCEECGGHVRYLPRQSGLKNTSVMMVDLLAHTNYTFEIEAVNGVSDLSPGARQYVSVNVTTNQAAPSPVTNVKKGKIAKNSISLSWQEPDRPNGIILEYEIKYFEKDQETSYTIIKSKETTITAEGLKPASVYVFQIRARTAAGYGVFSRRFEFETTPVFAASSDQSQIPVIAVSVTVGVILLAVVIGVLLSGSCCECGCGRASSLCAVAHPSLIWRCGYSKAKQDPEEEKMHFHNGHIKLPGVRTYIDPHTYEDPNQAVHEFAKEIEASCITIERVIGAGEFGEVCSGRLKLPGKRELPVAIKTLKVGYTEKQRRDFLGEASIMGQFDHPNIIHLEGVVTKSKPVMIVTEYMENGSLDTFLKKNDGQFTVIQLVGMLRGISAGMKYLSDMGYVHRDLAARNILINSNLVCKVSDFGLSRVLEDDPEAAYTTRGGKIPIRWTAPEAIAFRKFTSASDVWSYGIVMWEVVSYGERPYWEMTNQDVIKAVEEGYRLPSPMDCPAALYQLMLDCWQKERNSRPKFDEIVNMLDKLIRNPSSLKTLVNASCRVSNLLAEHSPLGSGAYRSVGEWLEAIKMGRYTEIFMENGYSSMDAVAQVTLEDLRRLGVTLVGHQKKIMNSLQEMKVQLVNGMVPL
Provide the reported Activity of each item.
Numbers only, in %.

[[record]]
smiles_entry = "COc1ccc([C@@H](Cc2nnn[nH]2)NC(=O)c2ncnc3[nH]ccc23)cc1"
recorded_measurement = 106


I would be grateful if you could provide Activity for each of the following entries.
1. CC(C)[C@@H](Nc1ncnc2[nH]ccc12)c1ccc2c(c1)S(=O)(=O)CCC2
2. CC(C)[C@H](Nc1ncnc2[nH]c(-c3cnn(C)c3C#N)cc12)c1ccc2c(n1)OCCO2

1. 110
2. 102

---

molecular target: Serine/threonine-protein kinase 17A (Homo sapiens) (UniProt Q9UEE5); assay: Enzymatic radiometric [Km ATP] KinaseProfiler LeadHunter assay, kinase: DRAK1, catalogue number: 14-668KP The assay has been performed by Eurofins Discovery.; conditions: ATP concentration 10.0 uM, Test compound concentration 10.0 uM
Sequence (Q9UEE5 whole entry): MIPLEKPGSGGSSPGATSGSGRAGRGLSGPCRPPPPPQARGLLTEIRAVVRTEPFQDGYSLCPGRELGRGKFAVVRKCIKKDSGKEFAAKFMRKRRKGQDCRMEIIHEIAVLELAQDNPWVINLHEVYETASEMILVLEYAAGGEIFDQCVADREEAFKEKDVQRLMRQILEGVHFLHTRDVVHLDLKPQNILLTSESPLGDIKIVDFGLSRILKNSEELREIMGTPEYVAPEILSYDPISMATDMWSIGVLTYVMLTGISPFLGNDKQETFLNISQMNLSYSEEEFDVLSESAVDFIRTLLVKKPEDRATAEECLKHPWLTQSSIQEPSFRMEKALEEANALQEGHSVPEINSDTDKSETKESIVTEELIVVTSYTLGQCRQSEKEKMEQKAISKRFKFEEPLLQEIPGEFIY
Would you mind telling me the reported Activity of each entry?
Answers are plain numbers, in %.

[[record]]
smiles_entry = "CC(C)[C@@H](Nc1ncnc2[nH]c(C(=O)N[C@@H]3CCN(C)C3)cc12)c1ccc2c(c1)S(=O)(=O)CCC2"
measured_target = "Serine/threonine-protein kinase 17A (Homo sapiens) (UniProt Q9UEE5)"
recorded_measurement = 105

[[record]]
smiles_entry = "CNC(=O)Cn1cc(-c2cc3c(N[C@@H](c4ccc5c(c4)S(=O)(=O)CCC5)C(C)C)ncnc3[nH]2)cn1"
measured_target = "Serine/threonine-protein kinase 17A (Homo sapiens) (UniProt Q9UEE5)"
recorded_measurement = 111

[[record]]
smiles_entry = "CC(C)[C@H](Nc1ncnc2[nH]ccc12)c1ccc2c(c1)S(=O)(=O)CCC2"
measured_target = "Serine/threonine-protein kinase 17A (Homo sapiens) (UniProt Q9UEE5)"
recorded_measurement = 117

[[record]]
smiles_entry = "CNCc1cc(-c2cc3c(N[C@@H](c4ccc5c(c4)S(=O)(=O)CCC5)C(C)C)ncnc3[nH]2)co1"
measured_target = "Serine/threonine-protein kinase 17A (Homo sapiens) (UniProt Q9UEE5)"
recorded_measurement = 86


Hi there! I need Activity for each item below, if you can.
1. Cn1ncc(-c2cc3c(N[C@@H](c4ccc5c(n4)OCCO5)C(C)(C)C)ncnc3[nH]2)c1C#N
2. CC(C)[C@@H](Nc1ncnc2[nH]ccc12)c1ccc2c(c1)S(=O)(=O)CCC2
3. COc1ccc([C@H](Cc2nnn[nH]2)NC(=O)c2ncnc3[nH]ccc23)cc1
4. CC(C)[C@H](Nc1ncnc2[nH]c(-c3cnn(C)c3C#N)cc12)c1ccc2c(n1)OCCO2
5. Cc1nn(C)cc1-c1cc2c(N[C@H](c3ccc4c(c3)S(=O)(=O)CCC4)C(C)C)ncnc2[nH]1
6. COc1ccc([C@@H](Cc2nnn[nH]2)NC(=O)c2ncnc3[nH]ccc23)cc1

1: 108; 2: 96; 3: 111; 4: 105; 5: 111; 6: 111

Provide the reported Activity (system: Serine/threonine-protein kinase 17A (Homo sapiens) (UniProt Q9UEE5)) for C[C@H](C(=O)O)[C@@H](NC(=O)c1ncnc2[nH]ccc12)c1ccc(Br)cc1
98
